Cited source for all entries: patent US6642389B2

# TESTED_TARGET: PPARα (Homo sapiens)
# Sequence (Q07869 167-468 limits assumed): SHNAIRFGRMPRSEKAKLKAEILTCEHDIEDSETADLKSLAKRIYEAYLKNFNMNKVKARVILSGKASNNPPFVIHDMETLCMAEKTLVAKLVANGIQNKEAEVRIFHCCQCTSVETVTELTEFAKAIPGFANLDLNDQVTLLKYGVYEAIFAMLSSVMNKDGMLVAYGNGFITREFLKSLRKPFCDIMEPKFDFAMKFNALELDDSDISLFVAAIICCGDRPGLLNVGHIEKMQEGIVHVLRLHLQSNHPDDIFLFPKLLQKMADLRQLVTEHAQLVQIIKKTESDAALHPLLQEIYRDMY
# MEASUREMENT_PROTOCOL: Radioligand binding assay, PPARα receptor binding (GST-PPARα-LBD fusion protein)
READOUT: IC50 (nM)
Give just the numeric value; nM need not be written.

1. C/C(=C/C(=O)c1ccc(C(F)(F)F)cc1)NC(Cc1ccc(OCCc2nc(-c3ccccc3)oc2C)c2ccsc12)C(=O)O (racemic) [Example 106] = 259

Let us move to another entry and its IC50.
Data request, read-out IC50, for CCO/C(=C\c1ccc(OCCc2nc(-c3ccccc3)oc2C)c2ccoc12)C(=O)O [Example 83]
109
